Taken from paper PMC10786891.

measured-target: T1, EsCas13d, nuclease-dead (Eubacterium siraeum, UniProt B0MS50, R295A;H300A;R849A;H854A)
T1 sequence: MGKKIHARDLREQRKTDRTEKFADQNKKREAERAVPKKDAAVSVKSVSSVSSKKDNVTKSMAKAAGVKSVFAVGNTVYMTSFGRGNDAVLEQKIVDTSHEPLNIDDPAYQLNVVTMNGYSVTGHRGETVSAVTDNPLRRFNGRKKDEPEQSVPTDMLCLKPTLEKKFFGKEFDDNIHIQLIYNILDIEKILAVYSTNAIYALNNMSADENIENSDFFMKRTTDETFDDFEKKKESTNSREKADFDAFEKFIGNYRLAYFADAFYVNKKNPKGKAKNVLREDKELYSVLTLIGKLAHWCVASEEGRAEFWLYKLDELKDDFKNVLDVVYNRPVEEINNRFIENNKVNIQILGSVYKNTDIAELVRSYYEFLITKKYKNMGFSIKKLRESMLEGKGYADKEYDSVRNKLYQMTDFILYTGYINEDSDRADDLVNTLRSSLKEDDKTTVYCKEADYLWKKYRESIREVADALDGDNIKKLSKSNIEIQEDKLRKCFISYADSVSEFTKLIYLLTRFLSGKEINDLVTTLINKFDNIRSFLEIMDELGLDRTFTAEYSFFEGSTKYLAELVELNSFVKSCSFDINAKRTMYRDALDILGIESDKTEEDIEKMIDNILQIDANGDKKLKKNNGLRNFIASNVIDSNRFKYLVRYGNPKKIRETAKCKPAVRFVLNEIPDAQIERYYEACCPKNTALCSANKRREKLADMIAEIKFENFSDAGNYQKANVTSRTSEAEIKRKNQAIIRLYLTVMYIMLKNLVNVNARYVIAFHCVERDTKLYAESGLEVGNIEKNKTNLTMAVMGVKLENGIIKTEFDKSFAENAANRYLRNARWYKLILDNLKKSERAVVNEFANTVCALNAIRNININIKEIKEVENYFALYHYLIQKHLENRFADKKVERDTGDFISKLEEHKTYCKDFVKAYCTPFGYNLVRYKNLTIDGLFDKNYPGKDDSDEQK
method-notes: crRNA (strand 1, pre-loaded); Mg2+; 40 mM Tris-HCl pH 7.5, 150 mM NaCl, 6 mM MgCl2, 1 mM DTT, 0.1% Tween-20, 0.2 mg/ml BSA; 25 C; 10 min per concentration, then washed
run-conditions: tags: His6-TwinStrep-SUMO cleaved; N-terminal SNAP kept (SNAP-Surface 488); label: 3' end held by stalled T7 RNA polymerase
Measured pKd, listed per entry.
Field pKd (float): negative decimal logarithm of the concentration in molar.

Guide cases for pKd, answers given:
binder	pKd
target 1 G5U,G12C (mixed) RNA 1: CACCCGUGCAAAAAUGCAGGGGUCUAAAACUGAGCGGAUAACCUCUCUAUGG RNA 2: GGGAAUGGAUCCACAUCUACGAAUUCGUACCAUAGAGAGCUUAUCCUCUCACCGAGAUCGGAAGAGCACACGU	7.39
target 1 insC 3' of 20,insC 3' of 1 (mixed) RNA 1: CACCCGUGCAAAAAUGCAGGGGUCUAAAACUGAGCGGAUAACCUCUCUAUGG RNA 2: GGGAAUGGAUCCACAUCUACGAAUUCGUACCACUAGAGAGGUUAUCCGCUCACCCGAGAUCGGAAGAGCACACGU	8.10
target 1 insA 3' of 17,insC 3' of 8 (mixed) RNA 1: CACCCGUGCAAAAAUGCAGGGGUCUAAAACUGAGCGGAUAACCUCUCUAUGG RNA 2: GGGAAUGGAUCCACAUCUACGAAUUCGUACCAUAGAAGAGGUUAUCCCGCUCACCGAGAUCGGAAGAGCACACGU	7.73
target 1 insU 3' of 13,insA 3' of 2 (mixed) RNA 1: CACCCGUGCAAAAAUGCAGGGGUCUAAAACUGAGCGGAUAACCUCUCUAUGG RNA 2: GGGAAUGGAUCCACAUCUACGAAUUCGUACCAUAGAGAGUGUUAUCCGCUCAACCGAGAUCGGAAGAGCACACGU	7.79
target 1 insA 3' of 17,insU 3' of 2 (mixed) RNA 1: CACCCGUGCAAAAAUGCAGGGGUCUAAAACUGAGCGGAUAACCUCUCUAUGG RNA 2: GGGAAUGGAUCCACAUCUACGAAUUCGUACCAUAGAAGAGGUUAUCCGCUCUACCGAGAUCGGAAGAGCACACGU	7.81
target 3 A9G (mixed) RNA 1: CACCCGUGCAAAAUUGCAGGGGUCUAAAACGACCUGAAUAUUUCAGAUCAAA RNA 2: GGGAAUGGAUCCACAUCUACGAAUUCGUUUUUGAUCUGAAAUGUUCAGGUCUGCAGAUCGGAAGAGCACACGU	7.54
target 1 insC 3' of 22,insA 3' of 12 (mixed) RNA 1: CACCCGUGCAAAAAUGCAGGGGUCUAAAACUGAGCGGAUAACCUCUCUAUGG RNA 2: GGGAAUGGAUCCACAUCUACGAAUUCGUACCCAUAGAGAGGAUUAUCCGCUCACCGAGAUCGGAAGAGCACACGU	7.38
target 1 U3C,U10G (mixed) RNA 1: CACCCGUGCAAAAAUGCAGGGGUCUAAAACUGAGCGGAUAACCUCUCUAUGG RNA 2: GGGAAUGGAUCCACAUCUACGAAUUCGUACCAUAGAGAGGUGAUCCGCCCACCGAGAUCGGAAGAGCACACGU	7.59

Tell me the measured pKd of target 1 MT 5'PFS GUU 3'PFS AUC (mixed) RNA 1: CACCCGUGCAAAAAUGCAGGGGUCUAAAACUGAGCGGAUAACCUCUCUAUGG RNA 2: GGGAAUGGAUCCACAUCUACGAAUUCGUUCCAUAGAGAGGUUAUCCGCUCAAUCAGAUCGGAAGAGCACACGU , please.
7.71

What about target 1 MT 5'PFS GUC 3'PFS AUG (mixed) RNA 1: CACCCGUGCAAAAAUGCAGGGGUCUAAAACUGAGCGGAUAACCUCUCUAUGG RNA 2: GGGAAUGGAUCCACAUCUACGAAUUCGUCCCAUAGAGAGGUUAUCCGCUCAAUGAGAUCGGAAGAGCACACGU ?
7.61
